# protocol notes: Intrinsic clearance in human liver microsomes in presence of NADPH-regenerating system incubated over 60 mins
# Format: ADME, Microsome
# condition info: read-out: CLH
quantity name: microsomal CLint

[[record]]
compound = "O=C(O)CNC(=O)COc1ccc([C@H]2CC[C@]3(CC2)OOC2(O3)C3CC4CC(C3)CC2C4)cc1 (stereo partly drawn)"
recorded_result = "< 7 µL/min/mg"

[[record]]
compound = "O=C(O)COc1ccc([C@H]2CC[C@]3(CC2)OOC2(O3)C3CC4CC2CC(C3)C4(F)F)cc1 (stereo partly drawn)"
recorded_result = "23 µL/min/mg"

[[record]]
compound = "O=C(O)CCCCOc1ccc([C@H]2CC[C@]3(CC2)OOC2(O3)C3CC4CC(C3)CC2C4)cc1 (stereo partly drawn)"
recorded_result = "< 7 µL/min/mg"

[[record]]
compound = "CS(=O)(=O)NC(=O)COc1ccc([C@H]2CC[C@]3(CC2)OOC2(O3)C3CC4CC(C3)CC2C4)cc1 (stereo partly drawn)"
recorded_result = "< 7 µL/min/mg"

[[record]]
compound = "CS(=O)(=O)O.NC1C2CC3CC1CC(C2)C31OO[C@]2(CC[C@@H](c3ccc(OCC(=O)O)cc3)CC2)O1 (stereo partly drawn)"
recorded_result = "13 µL/min/mg"

[[record]]
compound = "CS(=O)(=O)O.CS(=O)(=O)O.O=C(O)CNCc1ccc([C@H]2CC[C@]3(CC2)OOC2(O3)C3CC4CC2CC(C3)N4)cc1 (stereo partly drawn)"
recorded_result = "< 7 µL/min/mg"

[[record]]
compound = "O=C(O)CCCOc1ccc([C@H]2CC[C@]3(CC2)OOC2(O3)C3CC4CC(C3)CC2C4)cc1 (stereo partly drawn)"
recorded_result = "< 7 µL/min/mg"

[[record]]
compound = "O=C(O)COc1ccc([C@H]2CC[C@]3(CC2)OOC2(O3)C3CC4CC(C3)CC2C4)cc1Cl (stereo partly drawn)"
recorded_result = "< 7 µL/min/mg"


----------
# target entity: UniProt:P02768
# protocol notes: Protein binding to human albumin by HPLC analysis
# Type: ADME
# condition info: isolated protein
compounds and their reported PPB
quantity name: PPB (%)

[[record]]
compound = "O=C(O)CCCCOc1ccc([C@H]2CC[C@]3(CC2)OOC2(O3)C3CC4CC(C3)CC2C4)cc1 (stereo partly drawn)"
quantity_name = "PPB"
qual = ">"
recorded_result = 99.5

[[record]]
compound = "O=C(O)COc1ccc([C@H]2CC[C@]3(CC2)OOC2(O3)C3CC4CC2CC(C3)C4(F)F)cc1 (stereo partly drawn)"
quantity_name = "PPB"
qual = "="
recorded_result = 99.4

[[record]]
compound = "CS(=O)(=O)O.NC1C2CC3CC1CC(C2)C31OO[C@]2(CC[C@@H](c3ccc(OCC(=O)O)cc3)CC2)O1 (stereo partly drawn)"
quantity_name = "PPB"
qual = "="
recorded_result = 94.2

[[record]]
compound = "O=C([O-])C1CCN(CCOc2ccc([C@H]3CC[C@]4(CC3)OOC3(O4)C4CC5CC(C4)CC3C5)cc2)CC1.[Na+] (stereo partly drawn)"
quantity_name = "PPB"
qual = "="
recorded_result = 98

[[record]]
compound = "CC(=O)NC1C2CC3CC1CC(C2)C31OO[C@]2(CC[C@@H](c3ccc(OCC(=O)O)cc3)CC2)O1 (stereo partly drawn)"
quantity_name = "PPB"
qual = "="
recorded_result = 98.2

[[record]]
compound = "O=C(O)c1cccc([C@H]2CC[C@]3(CC2)OOC2(O3)C3CC4CC(C3)CC2C4)c1 (stereo partly drawn)"
quantity_name = "PPB"
qual = "="
recorded_result = 98.9

[[record]]
compound = "O=C(O)CCCOc1ccc([C@H]2CC[C@]3(CC2)OOC2(O3)C3CC4CC(C3)CC2C4)cc1 (stereo partly drawn)"
quantity_name = "PPB"
qual = ">"
recorded_result = 99.5

[[record]]
compound = "O=C(O)COc1ccc([C@H]2CC[C@]3(CC2)OOC2(O3)C3CC4CC2CC(C3)C4=O)cc1 (stereo partly drawn)"
quantity_name = "PPB"
qual = "="
recorded_result = 97.8


----------
compounds and their reported PPB
# target entity: Albumin (Homo sapiens, UniProt P02768)
# Sequence (P02768 whole entry): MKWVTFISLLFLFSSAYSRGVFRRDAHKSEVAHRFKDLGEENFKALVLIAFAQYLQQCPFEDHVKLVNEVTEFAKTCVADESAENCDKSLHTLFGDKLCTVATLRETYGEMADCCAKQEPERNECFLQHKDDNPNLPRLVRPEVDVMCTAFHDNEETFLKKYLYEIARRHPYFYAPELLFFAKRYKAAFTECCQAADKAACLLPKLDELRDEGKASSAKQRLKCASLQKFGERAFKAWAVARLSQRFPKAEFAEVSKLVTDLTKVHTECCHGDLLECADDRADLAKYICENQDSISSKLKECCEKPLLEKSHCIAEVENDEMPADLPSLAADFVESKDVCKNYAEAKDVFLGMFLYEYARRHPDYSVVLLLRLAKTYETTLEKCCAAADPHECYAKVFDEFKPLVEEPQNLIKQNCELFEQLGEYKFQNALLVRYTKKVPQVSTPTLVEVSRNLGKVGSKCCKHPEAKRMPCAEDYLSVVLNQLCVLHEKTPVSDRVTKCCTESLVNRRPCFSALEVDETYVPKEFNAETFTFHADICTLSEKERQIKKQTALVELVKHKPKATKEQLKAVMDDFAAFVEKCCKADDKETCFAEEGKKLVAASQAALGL
# protocol notes: Protein binding to human albumin by HPLC analysis
# Format: ADME
# condition info: isolated protein
quantity name: PPB (%)

[[record]]
compound = "CCOC(=O)COc1ccc([C@H]2CC[C@]3(CC2)OOC2(O3)C3CC4CC(C3)CC2C4)cc1 (stereo partly drawn)"
qual = "="
recorded_result = 98.9

[[record]]
compound = "O=C(O)c1ccc([C@H]2CC[C@]3(CC2)OOC2(O3)C3CC4CC(C3)CC2C4)cc1 (stereo partly drawn)"
qual = "="
recorded_result = 98.8

[[record]]
compound = "O=C(O)CNC(=O)COc1ccc([C@H]2CC[C@]3(CC2)OOC2(O3)C3CC4CC(C3)CC2C4)cc1 (stereo partly drawn)"
qual = "="
recorded_result = 98.5

[[record]]
compound = "CC(C)(Oc1ccc([C@H]2CC[C@]3(CC2)OOC2(O3)C3CC4CC(C3)CC2C4)cc1)C(=O)O (stereo partly drawn)"
qual = ">"
recorded_result = 99.5

[[record]]
compound = "O=C(O)COc1ccc([C@H]2CC[C@]3(CC2)OOC2(O3)C3CC4CC2CC(C3)C4O)cc1 (stereo partly drawn)"
qual = "="
recorded_result = 98.5

[[record]]
compound = "O=C(O)COc1ccc([C@H]2CC[C@]3(CC2)OOC2(O3)C3CC4CC(C3)CC2C4)cc1Cl (stereo partly drawn)"
qual = ">"
recorded_result = 99.5

[[record]]
compound = "CS(=O)(=O)O.O=C(O)CNCc1ccc([C@H]2CC[C@]3(CC2)OOC2(O3)C3CC4CC(C3)CC2C4)cc1 (stereo partly drawn)"
qual = "="
recorded_result = 97.6

[[record]]
compound = "O=C(O)COc1ccc([C@H]2CC[C@]3(CC2)OOC2(O3)C3CC4CC(C3)CC2C4)cc1C(=O)O (stereo partly drawn)"
qual = "="
recorded_result = 99.1


----------
# protocol notes: Intrinsic clearance in human liver microsomes in presence of NADPH-regenerating system incubated over 60 mins
# Type: ADME, Microsome
# condition info: read-out: CLH
compounds and their reported microsomal CLint
quantity name: microsomal CLint (µL/min/mg)

[[record]]
compound = "CC(C)(Oc1ccc([C@H]2CC[C@]3(CC2)OOC2(O3)C3CC4CC(C3)CC2C4)cc1)C(=O)O (stereo partly drawn)"
quantity_name = "microsomal CLint"
qual = "<"
recorded_result = 7

[[record]]
compound = "CC(=O)NC1C2CC3CC1CC(C2)C31OO[C@]2(CC[C@@H](c3ccc(OCC(=O)O)cc3)CC2)O1 (stereo partly drawn)"
quantity_name = "microsomal CLint"
qual = "="
recorded_result = 10

[[record]]
compound = "CS(=O)(=O)O.O=C(O)COc1ccc([C@H]2CC[C@]3(CC2)OOC2(O3)C3CC4CC2CC(C3)N4)cc1 (stereo partly drawn)"
quantity_name = "microsomal CLint"
qual = "="
recorded_result = 35


----------
# protocol notes: Partition coefficient, logD of the compound at pH 7.4 by HPLC analysis
# Assay type: physicochemical
# condition info: octanol/water
quantity name: logD

[[record]]
compound = "CS(=O)(=O)O.O=C(O)COc1ccc([C@H]2CC[C@]3(CC2)OOC2(O3)C3CC4CC2CC(C3)N4)cc1 (some centres not stated)"
quantity_name = "logD"
qual = "="
recorded_result = 1.3

[[record]]
compound = "CCOC(=O)COc1ccc([C@H]2CC[C@]3(CC2)OOC2(O3)C3CC4CC(C3)CC2C4)cc1 (some centres not stated)"
quantity_name = "logD"
qual = ">"
recorded_result = 5.3

[[record]]
compound = "O=C(O)COc1c(Cl)cc([C@H]2CC[C@]3(CC2)OOC2(O3)C3CC4CC(C3)CC2C4)cc1Cl (some centres not stated)"
quantity_name = "logD"
qual = "="
recorded_result = 3.3

[[record]]
compound = "O=C(O)COc1ccc([C@H]2CC[C@]3(CC2)OOC2(O3)C3CC4CC(C3)CC2C4)cc1Cl (some centres not stated)"
quantity_name = "logD"
qual = "="
recorded_result = 3.2

[[record]]
compound = "CC(C)(Oc1ccc([C@H]2CC[C@]3(CC2)OOC2(O3)C3CC4CC(C3)CC2C4)cc1)C(=O)O (some centres not stated)"
quantity_name = "logD"
qual = "="
recorded_result = 3.1

[[record]]
compound = "O=C(O)COc1ccc([C@H]2CC[C@]3(CC2)OOC2(O3)C3CC4CC(C3)CC2C4)cc1 (some centres not stated)"
quantity_name = "logD"
qual = "="
recorded_result = 2.9

[[record]]
compound = "O=C(O)CCCOc1ccc([C@H]2CC[C@]3(CC2)OOC2(O3)C3CC4CC(C3)CC2C4)cc1 (some centres not stated)"
quantity_name = "logD"
qual = "="
recorded_result = 3.6

[[record]]
compound = "CS(=O)(=O)O.CS(=O)(=O)O.O=C(O)CNCc1ccc([C@H]2CC[C@]3(CC2)OOC2(O3)C3CC4CC2CC(C3)N4)cc1 (some centres not stated)"
quantity_name = "logD"
qual = "="
recorded_result = 1.6

[[record]]
compound = "CC(=O)NC1C2CC3CC1CC(C2)C31OO[C@]2(CC[C@@H](c3ccc(OCC(=O)O)cc3)CC2)O1 (some centres not stated)"
quantity_name = "logD"
qual = "="
recorded_result = 1.8

[[record]]
compound = "O=C([O-])C1CCN(CCOc2ccc([C@H]3CC[C@]4(CC3)OOC3(O4)C4CC5CC(C4)CC3C5)cc2)CC1.[Na+] (some centres not stated)"
quantity_name = "logD"
qual = "="
recorded_result = 3.8

[[record]]
compound = "CS(=O)(=O)O.NC1C2CC3CC1CC(C2)C31OO[C@]2(CC[C@@H](c3ccc(OCC(=O)O)cc3)CC2)O1 (some centres not stated)"
quantity_name = "logD"
qual = "="
recorded_result = 1.4

[[record]]
compound = "O=C(O)COc1ccc([C@H]2CC[C@]3(CC2)OOC2(O3)C3CC4CC2CC(C3)C4(F)F)cc1 (some centres not stated)"
quantity_name = "logD"
qual = "="
recorded_result = 2.9

[[record]]
compound = "O=C(O)COc1ccc([C@H]2CC[C@]3(CC2)OOC2(O3)C3CC4CC2CC(C3)C4=O)cc1 (some centres not stated)"
quantity_name = "logD"
qual = "="
recorded_result = 1.9

[[record]]
compound = "O=C(O)c1ccc([C@H]2CC[C@]3(CC2)OOC2(O3)C3CC4CC(C3)CC2C4)cc1 (some centres not stated)"
quantity_name = "logD"
qual = "="
recorded_result = 3

[[record]]
compound = "O=C(O)c1cccc([C@H]2CC[C@]3(CC2)OOC2(O3)C3CC4CC(C3)CC2C4)c1 (some centres not stated)"
quantity_name = "logD"
qual = "="
recorded_result = 3

[[record]]
compound = "O=C(O)c1cc([C@H]2CC[C@]3(CC2)OOC2(O3)C3CC4CC(C3)CC2C4)ccc1O (some centres not stated)"
quantity_name = "logD"
qual = "="
recorded_result = 3

[[record]]
compound = "O=C(O)COc1ccc([C@H]2CC[C@]3(CC2)OOC2(O3)C3CC4CC(C3)CC2C4)cc1C(=O)O (some centres not stated)"
quantity_name = "logD"
qual = "="
recorded_result = 1.9

[[record]]
compound = "CS(=O)(=O)O.O=C(O)CNCc1ccc([C@H]2CC[C@]3(CC2)OOC2(O3)C3CC4CC(C3)CC2C4)cc1 (some centres not stated)"
quantity_name = "logD"
qual = "="
recorded_result = 3.3

[[record]]
compound = "CS(=O)(=O)NC(=O)COc1ccc([C@H]2CC[C@]3(CC2)OOC2(O3)C3CC4CC(C3)CC2C4)cc1 (some centres not stated)"
quantity_name = "logD"
qual = "="
recorded_result = 3

[[record]]
compound = "O=C(O)COc1ccc([C@H]2CC[C@]3(CC2)OOC2(O3)C3CC4CC2CC(C3)C4O)cc1 (some centres not stated)"
quantity_name = "logD"
qual = "="
recorded_result = 1.7

[[record]]
compound = "O=C(O)CCCCOc1ccc([C@H]2CC[C@]3(CC2)OOC2(O3)C3CC4CC(C3)CC2C4)cc1 (some centres not stated)"
quantity_name = "logD"
qual = "="
recorded_result = 4

[[record]]
compound = "O=C(O)CNC(=O)COc1ccc([C@H]2CC[C@]3(CC2)OOC2(O3)C3CC4CC(C3)CC2C4)cc1 (some centres not stated)"
quantity_name = "logD"
qual = "="
recorded_result = 3

